- Test system: DU-145 prostate
- Experiment: NCI tumour cell line growth inhibition, 48 h
Entries and their TGI values follow.

>>> value_measured("COc1ccc(OC)c([N+](=O)[O-])c1-c1nc2sccn2c1/C=N/N=C(N)N")
"> 100 µM"
>>> value_measured("CC(=O)NC1=C(C)C(=O)c2c(nc3n2CCC3OC(=O)c2ccccc2)C1=N (stereo unspecified)")
"3.44 µM"
>>> value_measured("Nc1nc(Cl)c(N)c(NCC2(CO)CC(Cc3ccccc3)C2)n1 (stereo unspecified)")
"> 100 µM"
>>> value_measured("CC1=NN(c2nc(N)nc(/C(C#N)=C/c3ccc([N+](=O)[O-])o3)n2)C(C)(C)C1")
"17 µM"
>>> value_measured("CCn1nc(C)c2c1C(=O)NC(C)C(=O)N2 (stereo unspecified)")
"> 100 µM"

Next molecule, TGI to be filled in.
Value of TGI reported for the molecule `CN(C)c1ccc(-c2ccc(-c3ccc(C(=N)N)c(F)c3)s2)cc1` is 3.18 µM
